- test_system: Coagulation factor X (Homo sapiens)
- Sequence (P00742 41-179 limits assumed): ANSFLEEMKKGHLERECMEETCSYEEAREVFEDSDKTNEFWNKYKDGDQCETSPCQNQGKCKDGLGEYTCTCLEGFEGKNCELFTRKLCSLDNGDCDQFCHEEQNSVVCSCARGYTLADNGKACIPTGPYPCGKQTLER
- Sequence (P00742 235-488 limits assumed): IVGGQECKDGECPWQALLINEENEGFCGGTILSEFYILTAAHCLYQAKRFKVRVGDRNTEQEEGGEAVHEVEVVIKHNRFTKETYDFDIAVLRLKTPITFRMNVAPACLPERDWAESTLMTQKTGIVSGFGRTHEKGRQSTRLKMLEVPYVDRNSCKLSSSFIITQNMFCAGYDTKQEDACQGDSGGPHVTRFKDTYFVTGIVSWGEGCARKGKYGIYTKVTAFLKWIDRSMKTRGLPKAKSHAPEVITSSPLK
- assay: Inhibitory concentration against human Coagulation factor Xa (fXa)
As shown below, each of these compounds has a reported pKi value.
The scale used: pKi is minus the common logarithm of the concentration in molar units.

{"chemical_string": "N=C(N)c1cccc(C(=O)N[C@@H](C(=O)OCCC2CCN(C(=N)N)CC2)c2ccccc2)c1", "pKi": 7.59}
{"chemical_string": "CCOC(=O)[C@@H](Cc1ccc2ccccc2c1)NC(=O)c1cccc(C(=N)N)c1", "pKi": 5.70}

Reported pKi for `N=C(N)c1ccccc1` : what is it?
6.70

Ref: ChEMBL document CHEMBL1135884
